Sourced from patent EP0103381B1

# Test system: lymphocytic leukemia P388
# protocolDescription: in vivo lymphocytic leukemia P388 test
# Set-up: species or system mice
# testSettings: Mus musculus, P388, ip, 720 h, P388, Dose 25 mg/kg intraperitoneally, two single doses four days apart; read-out: T/C × 100 (Percent)
measureName: response vs control in vivo at 25 mg/kg (%)

INSERT INTO measurements (compound, quantitativereadout) VALUES
  ('O=C1c2c(O)ccc(O)c2-c2nn(CCNCCO)c3ccc(Cl)c1c23 [7,10-(OH)2; Cl*; (CH2)2NH(CH2)2OH]', 143),
  ('CCN(CC)CCNc1ccc2c3c(nn2CC(O)CN(CC)CC)-c2c(O)ccc(O)c2C(=O)c13 (centres unmarked) [Example 44]', 131),
  ('O=C1c2c(O)ccc(O)c2-c2nn(CCNCCO)c3ccc(NCCN(CCO)CCO)c1c23 [Example 67]', 187),
  ('CCN(CC)CCn1nc2c3c(c(NCCNC)ccc31)C(=O)c1c(O)ccc(O)c1-2 [Example 31]', 219),
  ('CCN(CC)CCNc1ccc2c3c(nn2CCO)-c2c(O)ccc(O)c2C(=O)c13 [Example 35]', 128),
  ('O=C1c2ccccc2-c2nn(CCNCCO)c3ccc(NCCNCCO)c1c23 [Example 21]', 171),
  ('CN(C)CCNc1ccc2c3c(nn2CCNCCO)-c2c(O)ccc(O)c2C(=O)c13 [Example 56]', 88),
  ('NCCn1nc2c3c(c(NCCNCCO)ccc31)C(=O)c1ccccc1-2 [Example 27]', 187);

* * *

# Test system: Aerobacter aerogenes
# protocolDescription: agar plate paper-disc inhibition zone screening
# Type: cell-based
# testSettings: Klebsiella aerogenes; Dose 0.5 mg/ml; read-out: Inhibition Zone Diameter mm (Dose mg/ml) A. Aerogenes
Form field: zone of inhibition at 500 µg/mL (one value per entry).
measureName: zone of inhibition at 500 µg/mL (mm)

INSERT INTO assay_data (compound, measurename, unitabbreviation, quantitativereadout) VALUES
  ('CCN(CC)CCn1nc2c3c(cccc31)C(=O)c1c(NCCNCCO)cccc1-2', 'zone of inhibition at 500 µg/mL', 'mm', 18),
  ('O=C1c2c(O)ccc(O)c2-c2nn(CCNCCO)c3ccc(NCCCNCCO)c1c23', 'zone of inhibition at 500 µg/mL', 'mm', 14),
  ('CN(C)CCNc1ccc2c3c(nn2CCO)-c2c(O)ccc(O)c2C(=O)c13', 'zone of inhibition at 500 µg/mL', 'mm', 15),
  ('CN1CCN(c2ccc3c4c(nn3CCNCCO)-c3c(O)ccc(O)c3C(=O)c24)CC1', 'zone of inhibition at 500 µg/mL', 'mm', 17),
  ('O=C1c2c(NCCNCCO)cccc2-c2nn(CCNCCO)c3cccc1c23', 'zone of inhibition at 500 µg/mL', 'mm', 17),
  ('NCCNc1ccc2c3c(nn2CCNCCO)-c2ccccc2C(=O)c13', 'zone of inhibition at 500 µg/mL', 'mm', 16),
  ('CCN(CC)CC(O)Cn1nc2c3c(c(NCCNCCO)ccc31)C(=O)c1c(O)ccc(O)c1-2 (stereo not drawn)', 'zone of inhibition at 500 µg/mL', 'mm', 16),
  ('CN(C)CCNc1ccc2c3c(nn2CCNCCO)-c2ccccc2C(=O)c13', 'zone of inhibition at 500 µg/mL', 'mm', 16),
  ('CCN(CC)CCn1nc2c3c(c(NCCN)ccc31)C(=O)c1c(O)ccc(O)c1-2', 'zone of inhibition at 500 µg/mL', 'mm', 16);
